- Test system: carbapenemase producing K. pneumoniae
- assay text: MIC by broth micro-dilution (CLSI), carbapenemase producing K. pneumoniae
- Type: cell-based, Klebsiella pneumoniae
- settings: Klebsiella pneumoniae, ATCCBAA1705, KPC-2 K. pneumoniae ATCC BAA-1705; read-out: MIC
measurement type: MIC (µg/mL)
Record the value in µg/mL, omitting the unit from your answer.

Query: Dear colleague, I am looking for the recorded MIC of the following compound: C[C@@H](NC(=O)C(F)F)[C@H]1C(=O)N2C(C(=O)O)=C(S[C@@H]3CN[C@H](CN)C3)[C@H](C)[C@H]12 [Example 244]
Reply: 4

Query: One more compound: C[C@@H](NC(=O)C(F)F)[C@H]1C(=O)N2C(C(=O)O)=C(S[C@@H]3CN[C@H](CN4CCOCC4)C3)[C@H](C)[C@H]12 [Example 90]
Reply: 4

----------
// values below are reported MIC
- Tested on: carbapenemase producing K. pneumoniae
- assay text: MIC by broth micro-dilution (CLSI), carbapenemase producing K. pneumoniae
- Assay type: cell-based, Klebsiella pneumoniae
- settings: Klebsiella pneumoniae, ATCCBAA1705, KPC-2 K. pneumoniae ATCC BAA-1705; read-out: MIC
Record the value in µg/mL, omitting the unit from your answer.

Illustrative cases are given below, each with its answer.
1) CNCC(=O)N[C@H](C)[C@H]1C(=O)N2C(C(=O)O)=C(S[C@@H]3CN[C@H](C(=O)N4CCC5CNCCC54)C3)[C@H](C)[C@H]12 (single isomer, unassigned)    2
2) C[C@@H](NC(=O)C(F)F)[C@H]1C(=O)N2C(C(=O)O)=C(S[C@@H]3CN[C@H](C(=O)N(C)C)C3)[C@H](C)[C@H]12    1
3) C[C@@H](NC(=O)Cn1cnnn1)[C@H]1C(=O)N2C(C(=O)O)=C(S[C@@H]3CN[C@H](C(=O)N4CC[C@@H](O)C4)C3)[C@H](C)[C@H]12    1
4) C[C@@H](NC(=O)C(F)F)[C@H]1C(=O)N2C(C(=O)O)=C(S[C@@H]3CN[C@H](CN4CCNCC4)C3)[C@H](C)[C@H]12    8
5) C[C@@H](NC(=O)CNS(C)(=O)=O)[C@H]1C(=O)N2C(C(=O)O)=C(S[C@@H]3CN[C@H](C(=O)N(C)C)C3)[C@H](C)[C@H]12    16

Query: Dear colleague, I am looking for the recorded MIC of the following compound: C[C@@H](NC(=O)Cn1cnnn1)[C@H]1C(=O)N2C(C(=O)O)=C(S[C@@H]3CN[C@H](C(=O)N4CCCN(C(=N)N)CC4)C3)[C@H](C)[C@H]12
Reply: 2

Query: One more compound: C[C@@H](NC(=O)Cn1cnnn1)[C@H]1C(=O)N2C(C(=O)O)=C(S[C@@H]3CN[C@H](C(=O)N4CCC5CN(CCN)CCC54)C3)[C@H](C)[C@H]12 (stereo partly shown)
Reply: 1

Query: One more compound: C[C@@H](NS(C)(=O)=O)[C@H]1C(=O)N2C(C(=O)O)=C(S[C@@H]3CN[C@H](C(=O)N4CCOCC4)C3)[C@H](C)[C@H]12
Reply: 4
